- Test method notes: Competitive ELISA, relative CTS specificity, CINO as competitor
- Type: binding
- Test conditions: competition with immobilized MBG-BSA; normalized to MBG = 100%
Assay endpoint: Rel. CTS Specificity as % of MBG Binding: CINO (%)
Give your result in % as a bare value.

Data request: What value of measured Rel. CTS Specificity as % of MBG Binding: CINO is listed for 206/208: human anti-MBG antibody, VH SEQ ID NO: 36, VL SEQ ID NO: 37 (antibody, listed as Homo sapiens, V domains shown) VH: QVQLQESGPGLVKPSETLSLTCTVSGGSISSSSYYWGWIRQPPGKGLEWIGSIYYSGSTYYNPSLKSRVTISVDTSKNQFSLKLSSVTAADTAVYYCARVNLRGAFDIWGQGTTVTVSS VL: QSVVTQPPSVSGAPGQRVTISCTGSSSNIGAGYDVHWYQQLPGTAPKLLIYENNKRPSGIPDRFSGSKSGTSATLGITGLQTGDEADYYCGTWDSSLSAVVFGGGTKLTVL ?
Data returned: 0

Just for reference, patent US10654925B2 is where these values come from.
